Where do these numbers come from? They come from patent US11987588B2.

target: UniProtKB P13945; experiment: Homogeneous Time-Resolved Fluorescence (HTRF) cAMP antagonist assay, IC50 determination; conditions: CHO-K1 cells stably expressing recombinant receptor, isoproterenol at EC90
Field: pIC50. Provide a value for each of the molecules that follow.
Answers are plain numbers, as −log10 of the molar value.

Worked examples follow.
CCOc1ccc(-c2ccc(CN)cc2)cc1S(=O)(=O)N1CCC2(CC1)C[C@H](NC[C@H](O)COc1cccc(S(=O)(=O)NC)c1)CO2
8.01
CNS(=O)(=O)c1cccc(OC[C@@H](O)CNC2COC3(CCN(S(=O)(=O)c4ccc(OC)c5ccccc45)CC3)C2)c1 (stereo partly drawn)
7.17

Let us move to another entry and its pIC50.
Asked: Please supply the value of reported pIC50 for the item "CNS(=O)(=O)c1cccc(OC[C@@H](O)CN[C@@H]2COC3(CCN(S(=O)(=O)c4cccc(-c5ccc(CNC(C)C)cc5)c4)CC3)C2)c1"
Given back: 7.75

----------
Biological target: Beta-3 Adrenergic Receptor (Homo sapiens (Human), UniProt P13945)
Sequence (P13945 whole entry, species assumed): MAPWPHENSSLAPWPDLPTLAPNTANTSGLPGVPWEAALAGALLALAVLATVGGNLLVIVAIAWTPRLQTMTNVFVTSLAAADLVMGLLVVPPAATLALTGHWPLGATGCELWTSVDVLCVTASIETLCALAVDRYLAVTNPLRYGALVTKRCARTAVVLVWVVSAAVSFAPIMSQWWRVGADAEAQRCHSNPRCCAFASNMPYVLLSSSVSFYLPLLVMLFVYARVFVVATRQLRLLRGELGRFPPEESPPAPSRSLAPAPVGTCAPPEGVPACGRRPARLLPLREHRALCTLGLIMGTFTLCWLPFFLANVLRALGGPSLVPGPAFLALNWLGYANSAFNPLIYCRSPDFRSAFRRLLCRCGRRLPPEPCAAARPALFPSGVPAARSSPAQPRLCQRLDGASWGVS
Experiment: Homogeneous Time-Resolved Fluorescence (HTRF) cAMP antagonist assay, IC50 determination
Settings: CHO-K1 cells stably expressing recombinant receptor, isoproterenol at EC90
Procedure: HTRF cAMP assays were performed according to manufacturer's instructions (Cisbio, cAMP Dynamic 2 Assay Kit; #62AM4PEJ). CHO-K1 cells stably expressing recombinant receptor were harvested and suspended in warm PBS to make a 300,000 cells/mL stock. […] Compounds were dissolved and serially diluted (5-fold) in DMSO to generate a 10-point dose response stock. […] The EC90 for isoproterenol, a beta-adrenergic agonist, was determined in separate experiments using standard methods to measure agonist potencies. […]
pIC50: −log10 of the molar value.
Cut-off 7 on pIC50, inclusive. At or above means YES; below means NO.

Recorded results for 5 compounds are shown here.
CNS(=O)(=O)c1cccc(OC[C@@H](O)CNC2COC3(CCN(S(=O)(=O)c4ccc5c(c4)CCO5)CC3)C2)c1 (stereo partly shown)
YES
CNS(=O)(=O)c1cccc(OC[C@@H](O)CNC2COC3(CCN(S(=O)(=O)c4cccc(-c5ccc(CNCCF)cc5)c4)CC3)C2)c1 (stereo partly shown)
YES
CNS(=O)(=O)c1cccc(OC[C@@H](O)CNC2COC3(CCN(S(=O)(=O)c4ccccc4F)CC3)C2)c1 (stereo partly shown)
YES
CNS(=O)(=O)c1cccc(OC[C@@H](O)CNC2COC3(CCN(S(=O)(=O)c4cccc(C(=O)O)c4)CC3)C2)c1 (stereo partly shown)
NO
CNS(=O)(=O)c1cccc(OC[C@@H](O)CNC2COC3(CCN(S(=O)(=O)c4cccc(F)c4F)CC3)C2)c1 (stereo partly shown)
YES

Asked: Hi team, for "CN1CCOc2ncc(S(=O)(=O)N3CCC4(CC3)C[C@@H](NC[C@H](O)COc3cccc(S(=O)(=O)NCC#N)c3)CO4)cc21" , is the recorded pIC50 at or above 7?
Given back: NO

Asked: Hi team, for CN(C)S(=O)(=O)c1cccc(OC[C@@H](O)CNC2COC3(CCN(S(=O)(=O)c4cccc(-c5ccc(S(N)(=O)=O)cc5)c4)CC3)C2)c1 (stereo partly shown) , is the recorded pIC50 at or above 7?
Given back: YES

Asked: Hi team, for CN(C)CCCNS(=O)(=O)c1cccc(OC[C@@H](O)CNC2COC3(CCN(S(=O)(=O)c4ccc5c(c4)N(C)CCO5)CC3)C2)c1 (stereo partly shown) , is the recorded pIC50 at or above 7?
Given back: NO

Asked: Hi team, for "CNS(=O)(=O)c1cccc(OC[C@@H](O)CN[C@H]2COC3(CCN(S(=O)(=O)c4cc(-c5ccc(CN)cc5)ccc4OC(F)(F)F)CC3)C2)c1" , is the recorded pIC50 at or above 7?
Given back: NO

Asked: Hi team, for CNS(=O)(=O)c1cccc(OC[C@@H](O)CNC2COC3(CCN(S(=O)(=O)c4cccc(-c5cc[nH]c5)c4)CC3)C2)c1 (stereo partly shown) , is the recorded pIC50 at or above 7?
Given back: YES

Asked: Hi team, for "CCn1cc(S(=O)(=O)N2CCC3(CC2)C[C@@H](NC[C@H](O)COc2cccc(S(=O)(=O)NC)c2)CO3)c(=O)c2ccc(C)cc21" , is the recorded pIC50 at or above 7?
Given back: YES
